Biological target: Sodium-dependent dopamine transporter (Rattus norvegicus) (UniProt P23977)
Sequence (P23977 whole entry): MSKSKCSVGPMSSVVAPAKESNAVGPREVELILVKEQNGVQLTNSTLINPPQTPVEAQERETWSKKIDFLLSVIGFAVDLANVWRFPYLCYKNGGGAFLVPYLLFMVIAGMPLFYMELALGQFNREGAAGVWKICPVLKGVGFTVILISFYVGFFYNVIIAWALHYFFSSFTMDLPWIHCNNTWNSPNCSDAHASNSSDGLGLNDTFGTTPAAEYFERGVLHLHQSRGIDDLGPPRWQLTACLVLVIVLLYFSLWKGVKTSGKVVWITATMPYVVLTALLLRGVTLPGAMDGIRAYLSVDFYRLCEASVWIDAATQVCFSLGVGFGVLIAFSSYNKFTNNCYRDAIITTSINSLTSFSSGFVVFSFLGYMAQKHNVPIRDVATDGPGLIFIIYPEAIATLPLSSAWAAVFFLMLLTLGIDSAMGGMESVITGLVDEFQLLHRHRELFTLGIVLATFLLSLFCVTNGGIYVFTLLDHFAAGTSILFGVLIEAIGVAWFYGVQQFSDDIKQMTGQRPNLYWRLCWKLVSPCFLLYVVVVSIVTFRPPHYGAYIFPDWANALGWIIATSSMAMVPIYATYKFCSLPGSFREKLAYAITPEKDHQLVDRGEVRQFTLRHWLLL
Assay: Binding affinity to Dopamine transporter (DAT) using [3H]WIN-35428 at 1 uM

molecule | Specific binding, %
CCCCN(CCCC)CCC(=O)c1cc(-c2ccccc2)oc1-c1ccccc1 | 93.4
COc1cc(NCCN(CC(C)C)CC(C)C)c2ncccc2c1 | 81.6
CCOC(=O)N1CCN(Cc2c[nH]c3ccccc23)CC1 | 88.5
CN1CCC(OC(c2ccccc2)c2ccc(Cl)cc2)C1 (stereo unspecified) | 8.43
O=C1c2ccccc2CC1CN1CCCCC1 (stereo unspecified) | 89.9
c1ccc2c(CN3CCOCC3)c[nH]c2c1 | 88.1
O=C1N2CCNc3ccccc3C(c3ccccc3)N1CC2 (stereo unspecified) | 55.8
c1ccc(C(CN2CCCCC2)OCc2cccs2)cc1 (stereo unspecified) | 42.1
Clc1ccc(C2NCCNCc3ccccc32)cc1 (stereo unspecified) | 54.3
CC(C(OC(=O)C1c2ccccc2-c2ccccc21)c1ccccc1)N(C)C (stereo unspecified) | 19
CC(CN1CCCC1)OC(=O)C(c1ccccc1)C1C=CCC1 (stereo unspecified) | 49.7

====

These records show Ki for Sodium-dependent dopamine transporter (Rattus norvegicus).

molecule | units.of.measure | Ki
CC(NC(C)(C)C)C(=O)c1cccc(Cl)c1 (stereo not given) | nM | 372
CN(C)C/C=C(\c1cccnc1)c1cccc(Br)c1 | nM | 11200
COC(=O)C1C2CC[C@H](C[C@@H]1c1ccc(Cl)cc1)N2C (stereo not given in full) | nM | 2
CN1C2CCC1[C@@H](CCCO)[C@@H](c1ccccc1)C2 (stereo not given in full) | nM | 11
CCCN1CCCC(c2ccc(O)cc2)C1 (stereo not given) | nM | 562
